Answer each item with its documented total protein half-life in vivo.
- run-description: total protein half-life in vivo (active degradation + dilution); higher = more stable protein
- assay-conditions: wild type E. coli NCM3722; growth: N-lim chemostat; doubling time 6 h
Answers are plain numbers, in h.

Illustrative cases are given below, each with its answer.
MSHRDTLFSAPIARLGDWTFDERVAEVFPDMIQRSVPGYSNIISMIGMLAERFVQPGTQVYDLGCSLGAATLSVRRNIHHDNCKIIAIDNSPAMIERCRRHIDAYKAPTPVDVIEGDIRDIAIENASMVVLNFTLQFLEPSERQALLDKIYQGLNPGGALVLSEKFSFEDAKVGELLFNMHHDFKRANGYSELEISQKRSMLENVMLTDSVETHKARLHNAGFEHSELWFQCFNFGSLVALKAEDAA; 3.17
MSSYANHQALAGLTLGKSTDYRDTYDASLLQGVPRSLNRDPLGLKADNLPFHGTDIWTLYELSWLNAKGLPQVAVGHVELDYTSVNLIESKSFKLYLNSFNQTRFNNWDEVRQTLERDLSTCAQGKISVALYRLDELEGQPIGHFNGTCIDDQDITIDNYEFTTDYLENATCGEKVVEETLVSHLLKSNCLITHQPDWGSLQIQYRGRQIDREKLLRYLVSFRHHNEFHEQCVERIFNDLLRFCQPEKLSVYARYTRRGGLDINPWRSNSDFVPSTTRLVRQ; 4.41

# ---- query sequence ----
Query: Fill in: total protein half-life in vivo of MKTAYIAKQRQISFVKSHFSRQLEERLGLIEVQAPILSRVGDGTQDNLSGCEKAVQVKVKALPDAQFEVVHSLAKWKRQTLGQHDFSAGEGLYTHMKALRPDEDRLSPLHSVYVDQWDWERVMGDGERQFSTLKSTVEAIWAGIKATEAAVSEEFGLAPFLPDQIHFVHSQELLSRYPDLDAKGRERAIAKDLGAVFLVGIGGKLSDGHRHDVRAPDYDDWSTPSELGHAGLNGDILVWNPVLEDAFELSSMGIRVDADTLKHQLALTGDEDRLELEWHQALLRGEMPQTIGGGIGQSRLTMLLLQLPHIGQVQCGVWPAAVRESVPSLL is ___
Result: 2.29

* * *

- run-description: total protein half-life in vivo (active degradation + dilution); higher = more stable protein
- assay-conditions: E. coli NCM3722 delta-clpP delta-lon delta-hslV; growth: N-lim chemostat; doubling time 6 h
Answer each item with its documented total protein half-life in vivo.
One number for each entry, in h.

Illustrative cases are given below, each with its answer.
MSNTYQKRKASKEYGLYNQCKKLNDDELFRLLDDHNSLKRISSARVLQLRGGQDAVRLAIEFCSDKNYIRRDIGAFILGQIKICKKCEDNVFNILNNMALNDKSACVRATAIESTAQRCKKNPIYSPKIVEQSQITAFDKSTNVRRATAFAISVINDKATIPLLINLLKDPNGDVRNWAAFAININKYDNSDIRDCFVEMLQDKNEEVRIEAIIGLSYRKDKRVLSVLCDELKKNTVYDDIIEAAGELGDKTLLPVLDTMLYKFDDNEIITSAIDKLKRS [P0ADK6]; 5.51
MPKLILASTSPWRRALLEKLQISFECAAPEVDETPRSDESPRQLVLRLAQEKAQSLASRYPDHLIIGSDQVCVLDGEITGKPLTEENARLQLRKASGNIVTFYTGLALFNSANGHLQTEVEPFDVHFRHLSEAEIDNYVRKEHPLHCAGSFKSEGFGITLFERLEGRDPNTLVGLPLIALCQMLRREGKNPLMG [P0A729]; 4.57
MQTKKNEIWVGIFLLAALLAALFVCLKAANVTSIRTEPTYTLYATFDNIGGLKARSPVSIGGVVVGRVADITLDPKTYLPRVTLEIEQRYNHIPDTSSLSIRTSGLLGEQYLALNVGFEDPELGTAILKDGDTIQDTKSAMVLEDLIGQFLYGSKGDDNKNSGDAPAAAPGNNETTEPVGTTK; 6.04
MTISELLQYCMAKPGAEQSVHNDWKATQIKVEDVLFAMVKEVENRPAVSLKTSPELAELLRQQHSDVRPSRHLNKAHWSTVYLDGSLPDSQIYYLVDASYQQAVNLLPEEKRKLLVQL [P0AF50]; 6.83
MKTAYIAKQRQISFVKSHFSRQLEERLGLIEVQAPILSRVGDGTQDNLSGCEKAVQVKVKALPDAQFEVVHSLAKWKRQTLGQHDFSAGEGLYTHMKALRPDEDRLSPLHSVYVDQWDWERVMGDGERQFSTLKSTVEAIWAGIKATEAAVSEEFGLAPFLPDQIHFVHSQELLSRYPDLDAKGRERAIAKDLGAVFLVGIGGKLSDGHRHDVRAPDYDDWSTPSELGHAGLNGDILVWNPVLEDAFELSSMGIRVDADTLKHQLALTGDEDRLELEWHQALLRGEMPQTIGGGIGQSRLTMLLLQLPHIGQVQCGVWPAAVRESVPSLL; 2.59
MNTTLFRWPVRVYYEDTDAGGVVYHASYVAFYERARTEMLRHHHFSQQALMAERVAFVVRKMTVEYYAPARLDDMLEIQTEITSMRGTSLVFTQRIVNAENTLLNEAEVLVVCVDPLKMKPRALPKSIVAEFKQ [P0A8Z3]; 5.87

Give one value of total protein half-life in vivo per listed sequence.
1. MHINIAWQDVDTVLLDMDGTLLDLAFDNYFWQKLVPETWGAKNGVTPQEAMEYMRQQYHDVQHTLNWYCLDYWSEQLGLDICAMTTEMGPRAVLREDTIPFLEALKASGKQRILLTNAHPHNLAVKLEHTGLDAHLDLLLSTHTFGYPKEDQRLWHAVAEATGLKAERTLFIDDSEAILDAAAQFGIRYCLGVTNPDSGIAEKQYQRHPSLNDYRRLIPSLM
2. MSHPALTQLRALRYCKEIPALDPQLLDWLLLEDSMTKRFEQQGKTVSVTMIREGFVEQNEIPEELPLLPKESRYWLREILLCADGEPWLAGRTVVPVSTLSGPELALQKLGKTPLGRYLFTSSTLTRDFIEIGRDAGLWGRRSRLRLSGKPLLLTELFLPASPLY

Result:
4.35
4.9

* * *

- run-description: total protein half-life in vivo (active degradation + dilution); higher = more stable protein
- assay-conditions: wild type E. coli NCM3722; growth: P-lim chemostat; doubling time 6 h
outcome-measure: total protein half-life in vivo (h)
Numbers only, in h.

Illustrative cases are given below, each with its answer.
MKKVLLIILLLLVVLGIAAGVGVWKVRHLADSKLLIKEETIFTLKPGTGRLALGEQLYADKIINRPRVFQWLLRIEPDLSHFKAGTYRFTPQMTVREMLKLLESGKEAQFPLRLVEGMRLSDYLKQLREAPYIKHTLSDDKYATVAQALELENPEWIEGWFWPDTWMYTANTTDVALLKRAHKKMVKAVDSAWEGRADGLPYKDKNQLVTMASIIEKETAVASERDKVASVFINRLRIGMRLQTDPTVIYGMGERYNGKLSRADLETPTAYNTYTITGLPPGAIATPGADSLKAAAHPAKTPYLYFVADGKGGHTFNTNLASHNKSVQDYLKVLKEKNAQ; 6
MSSRVLTPDVVGIDALVHDHQTVLAKAEGGVVAVFANNAPAFYAVTPARLAELLALEEKLARPGSDVALDDQLYQEPQAAPVAVPMGKFAMYPDWQPDADFIRLAALWGVALREPVTTEELASFIAYWQAEGKVFHHVQWQQKLARSLQIGRASNGGLPKRDVNTVSEPDSQIPPGFRG [P0A8J2]; 2.68
MTEAQRHQILLEMLAQLGFVTVEKVVERLGISPATARRDINKLDESGKLKKVRNGAEAITQQRPRWTPMNLHQAQNHDEKVRIAKAASQLVNPGESVVINCGSTAFLLGREMCGKPVQIITNYLPLANYLIDQEHDSVIIMGGQYNKSQSITLSPQGSENSLYAGHWMFTSGKGLTAEGLYKTDMLTAMAEQKMLSVVGKLVVLVDSSKIGERAGMLFSRADQIDMLITGKNANPEILQQLEAQGVSILRV [P0A9W0]; 6.75
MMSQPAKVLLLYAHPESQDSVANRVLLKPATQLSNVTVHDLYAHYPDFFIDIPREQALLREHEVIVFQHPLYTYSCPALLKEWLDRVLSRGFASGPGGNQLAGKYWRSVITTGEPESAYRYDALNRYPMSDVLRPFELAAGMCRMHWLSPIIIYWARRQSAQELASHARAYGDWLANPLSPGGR [P0A756]; 5.24

Give one value of total protein half-life in vivo per listed sequence.
1. MNLSTKQKQHLKGLAHPLKPVVLLGSNGLTEGVLAEIEQALEHHELIKVKIATEDRETKTLIVEAIVRETGACNVQVIGKTLVLYRPTKERKISLPR [P0AGK4]
2. MTIYFINWVADYELKMIQYLKKKYKIKNITTPKKYNWINKKISKIGMDNAWLGRLFIKHYLNDIKKDDIIIINDSVVNKGINKQILKNINCHKVLLLRNTVGEDFILDNANYFDIIYDFEHRFIGNEKIKAIEQFFPIGMDEIRNYSLSDKNNSQPICFFLGRDKGRLQIINELAERLTTLGCKLDFNVVKDKTSSTTSKYLIEKQISYEENIRRTLNANIIVDITKENQSGWTLRILEALFFNKKLITNNINVFGSEIYSESRFFIIGHDDWDKLEYFINSSVKPMDYDSLYKFSPDKMMSTIVSDFIDK

Result:
1: 4.88; 2: 4.59
